# Test system: AS120
# procedureSummary: qHTS profiling for inhibitors of Plasmodium falciparum proliferation (AID 504749); note: nearly all actives have a fitted effect of over 60% in size
# reportedConditions: P. falciparum in erythrocytes, SYBR Green DNA, 72 h; series mostly up to 28.7 µM
# Experimental: NIH National Institute of Allergy and Infectious Diseases [NIAID] NIH Chemical Genomics Center [NCGC] […] Because mature erythrocytes lack DNA, only Plasmodium-derived DNA is detected. NCGC Assay Protocol Summary: The SYBR Green viability assay was adapted from a method described previously (Plouffe et al., 2008). […] The following morning, fluorescence intensity at 485(14) nm excitation and 535(25) nm emission wavelengths was measured on an EnVision (Perkin Elmer) plate reader. […]
Inconclusive results are not listed. Activity calls are given as the source filed them. Calls come from the whole dose curve; as a rule, active = well fitted inhibition curve with a large enough effect; inconclusive = small, poorly fitted or top-dose-only effect; inactive = flat fitted curve, though single readings scatter.
Outcome field: choose from Yes = active, No = inactive

Query: Per the assay record, what outcome was assigned to O[C@@H](c1cc(C(F)(F)F)nc2c(C(F)(F)F)cccc12)[C@H]1CCCCN1 ?
Response: Yes

Query: Per the assay record, what outcome was assigned to Cc1cc(-c2ccccc2)nnc1NCCN1CCOCC1 ?
Response: No

Query: Per the assay record, what outcome was assigned to CCCCCCCC/C=C\CCCCCCCCN ?
Response: No

Query: Per the assay record, what outcome was assigned to O=C(O)CCNC(=O)c1ccccc1 ?
Response: No

Query: Per the assay record, what outcome was assigned to CCN(CC)CCNc1ccc(CO)c2sc3ccccc3c(=O)c12 ?
Response: Yes

Query: Per the assay record, what outcome was assigned to Nc1ccc(S(=O)(=O)NCc2ccccc2)cc1 ?
Response: No

Query: Per the assay record, what outcome was assigned to Cc1ccc(S(=O)(=O)NC(=O)NC2CCCC2)cc1 ?
Response: No

Query: Per the assay record, what outcome was assigned to O=C(NC1CCN(CCc2c[nH]c3ccccc23)CC1)c1ccccc1 ?
Response: No

Query: Per the assay record, what outcome was assigned to CCC(CC)(CC(=O)Nc1cccc(/C=C/c2nc(C3CCC3)cs2)c1)C(=O)O ?
Response: No

Query: Per the assay record, what outcome was assigned to CC(=O)Nc1ccc(S(=O)(=O)Nc2ccc([N+](=O)[O-])cc2)cc1 ?
Response: No

Query: Per the assay record, what outcome was assigned to N=C(N)N1CCc2ccccc2C1 ?
Response: No

Query: Per the assay record, what outcome was assigned to CCOC(=O)c1ccc(N)cc1 ?
Response: No

Query: Per the assay record, what outcome was assigned to Oc1ccccc1C=NCc1ccccc1 ?
Response: No

Query: Per the assay record, what outcome was assigned to O=C(O)P(=O)(O)O ?
Response: No

Query: Per the assay record, what outcome was assigned to C[N+]1(CC2COC(c3ccccc3)(C3CCCCC3)O2)CCCCC1 (configuration not stated) ?
Response: Yes

Query: Per the assay record, what outcome was assigned to CCOCCn1c(N2CCCN(C)CC2)nc2ccccc21 ?
Response: No

Query: Per the assay record, what outcome was assigned to CC(=O)Nc1ccc(OC(=O)c2ccccc2OC(C)=O)cc1 ?
Response: No

Query: Per the assay record, what outcome was assigned to CCc1oc2ccccc2c1C(=O)c1cc(Br)c(O)c(Br)c1 ?
Response: No

Query: Per the assay record, what outcome was assigned to CCOc1cc(OCC)c(C(=O)CCC(=O)O)cc1OCC ?
Response: No

Query: Per the assay record, what outcome was assigned to CCNC(=O)NCc1cccc(Cl)c1 ?
Response: No

Query: Per the assay record, what outcome was assigned to CN(Cc1ccc(C(C)(C)C)cc1)Cc1cccc2ccccc12 ?
Response: No

Query: Per the assay record, what outcome was assigned to NC(=O)c1ccccc1O ?
Response: No

Query: Per the assay record, what outcome was assigned to CC(=O)N[C@@H](CCC(=O)O)C(=O)O ?
Response: No

Query: Per the assay record, what outcome was assigned to COc1ccc(C(=O)c2ccccc2O)c(O)c1 ?
Response: Yes

Query: Per the assay record, what outcome was assigned to CCN(CC)CCNC(=O)c1cc(Br)c(N)cc1OC ?
Response: No

Query: Per the assay record, what outcome was assigned to C[N+]1(C)CCC(=C(c2ccccc2)c2ccccc2)CC1 ?
Response: No

Query: Per the assay record, what outcome was assigned to COc1cc(NS(=O)(=O)c2ccc(N)cc2)ncn1 ?
Response: No

###

# Test system: CP211
# procedureSummary: qHTS profiling for inhibitors of Plasmodium falciparum proliferation (AID 504749); note: nearly all actives have a fitted effect of over 60% in size
# reportedConditions: P. falciparum in erythrocytes, SYBR Green DNA, 72 h; series mostly up to 28.7 µM
# Experimental: NIH National Institute of Allergy and Infectious Diseases [NIAID] NIH Chemical Genomics Center [NCGC] […] Because mature erythrocytes lack DNA, only Plasmodium-derived DNA is detected. NCGC Assay Protocol Summary: The SYBR Green viability assay was adapted from a method described previously (Plouffe et al., 2008). […] The following morning, fluorescence intensity at 485(14) nm excitation and 535(25) nm emission wavelengths was measured on an EnVision (Perkin Elmer) plate reader. […]
Inconclusive results are not listed. Activity calls are given as the source filed them. Calls come from the whole dose curve; as a rule, active = well fitted inhibition curve with a large enough effect; inconclusive = small, poorly fitted or top-dose-only effect; inactive = flat fitted curve, though single readings scatter.
Outcome field: choose from Y for active, N for inactive

Query: Per the assay record, what outcome was assigned to CCCCCCCCCCCCCCCC(=O)O ?
Response: N

Query: Per the assay record, what outcome was assigned to CC1=C(C(=O)O)N2C(=O)[C@@H](NC(=O)[C@H](N)c3ccccc3)[C@H]2SC1 ?
Response: N

Query: Per the assay record, what outcome was assigned to CCCCC(CC)COC(=O)/C=C/c1ccc(OC)cc1 (stereo not given) ?
Response: N

Query: Per the assay record, what outcome was assigned to O=C(O)C(Cc1cc(I)c(O)c(I)c1)c1ccccc1 (stereo not given) ?
Response: N

Query: Per the assay record, what outcome was assigned to C#C[C@]1(O)CC[C@H]2[C@@H]3CCC4=Cc5oncc5C[C@]4(C)[C@H]3CC[C@@]21C ?
Response: N

Query: Per the assay record, what outcome was assigned to Oc1ccccc1C=NCc1ccccc1 ?
Response: N

Query: Per the assay record, what outcome was assigned to Nc1nc(N)c(-c2ccccc2)s1 ?
Response: N

Query: Per the assay record, what outcome was assigned to NCCNC(=O)c1ccc(Cl)cn1 ?
Response: N

Query: Per the assay record, what outcome was assigned to O=C(NCCc1c[nH]c2ccccc12)c1cccnc1 ?
Response: N

Query: Per the assay record, what outcome was assigned to Nc1ccc(S(=O)(=O)NCc2ccccc2)cc1 ?
Response: N

Query: Per the assay record, what outcome was assigned to CCC(CC)(CC(=O)Nc1cccc(/C=C/c2nc(C3CCC3)cs2)c1)C(=O)O ?
Response: N

Query: Per the assay record, what outcome was assigned to FC(F)(F)C(F)(F)C(F)(F)C(F)(F)C(F)(F)C(F)(F)C(F)(F)C(F)(F)Br ?
Response: N

Query: Per the assay record, what outcome was assigned to C[N+]1(CC2COC(c3ccccc3)(C3CCCCC3)O2)CCCCC1 (stereo not given) ?
Response: Y

Query: Per the assay record, what outcome was assigned to COc1ccc(/C=N/NC(=O)c2ccncc2)cc1OC ?
Response: N

Query: Per the assay record, what outcome was assigned to O=C(Oc1cccc2cccnc12)c1ccccc1 ?
Response: N

Query: Per the assay record, what outcome was assigned to O=C(O)Cc1csc(-c2ccc(Cl)cc2)n1 ?
Response: N

Query: Per the assay record, what outcome was assigned to CCCCCCCCCCCCCCCCO ?
Response: N

Query: Per the assay record, what outcome was assigned to CCN(CC)CCNc1ccc(CO)c2sc3ccccc3c(=O)c12 ?
Response: Y

Query: Per the assay record, what outcome was assigned to Cc1cc(CC(=O)O)c(C)n1-c1ccc(Cl)cc1 ?
Response: N

Query: Per the assay record, what outcome was assigned to Cn1c(=O)c2[nH]c(Br)nc2n(C)c1=O ?
Response: N

Query: Per the assay record, what outcome was assigned to CCC1Nc2cc(Cl)c(S(N)(=O)=O)cc2S(=O)(=O)N1 (stereo not given) ?
Response: N

Query: Per the assay record, what outcome was assigned to Cc1ccc(O)c([C@H](CCN(C(C)C)C(C)C)c2ccccc2)c1 ?
Response: Y

Query: Per the assay record, what outcome was assigned to Oc1c(Cl)cc(Cl)c(Cl)c1Cc1c(O)c(Cl)cc(Cl)c1Cl ?
Response: Y

Query: Per the assay record, what outcome was assigned to COP(=O)(OC)OC(c1ccc(Cl)cc1)P(=O)(OC)OC (stereo not given) ?
Response: N

Query: Per the assay record, what outcome was assigned to O=C(Nc1cccc(C2=NCCN2)c1)Nc1cccc(C2=NCCN2)c1 ?
Response: Y

###

# System: Hek293T
# procedureSummary: Primary qHTS to identify gynecologic anti-cancer compounds using libraries of approved drugs and bioactive compounds (AID 1345084); note: nearly all actives have a fitted effect of over 55% in size; note: potency is the fitted concentration of half-maximal effect
# reportedConditions: Gynecologic cancer cell panel viability, ATPlite luminescence, 48 h, control line for the selectivity index; series mostly up to 57.5 µM
Records with an inconclusive call do not appear. The source made the active and inactive calls. The call rests on the fitted dose curve; in most records, active means well fitted cell-killing curve with a large enough effect; inconclusive means small, poorly fitted or top-dose-only effect, or effect the other way; inactive means flat fitted curve, though single readings scatter.
metric: Potency

Recorded Potency, per entry:
compound	metric	recordedResult
CC(=O)NCCCCCC(=O)O	Potency	inactive
C=CCN1CCc2nc(N)sc2CC1	Potency	inactive
N/C(=N\N=C\c1ccc(Cl)cc1)N/N=C/c1ccc(Cl)cc1	Potency	inactive
C[C@@]12C(=O)OC(=O)[C@]1(C)C1CCC2O1	Potency	10 µM (active)

Query: Return reported Potency. Input compound: CC(C)[N+](C)(C)CC(O)COc1cccc2ccccc12 (stereo unspecified)
Response: inactive

Query: Return reported Potency. Input compound: COc1ccc(CCN(C)CCCN2CCc3cc(OC)c(OC)cc3CC2=O)cc1OC
Response: inactive
